The compounds listed here are annotated with their Activity.
target desc: UniProt:P21554
Sequence (P21554 whole entry): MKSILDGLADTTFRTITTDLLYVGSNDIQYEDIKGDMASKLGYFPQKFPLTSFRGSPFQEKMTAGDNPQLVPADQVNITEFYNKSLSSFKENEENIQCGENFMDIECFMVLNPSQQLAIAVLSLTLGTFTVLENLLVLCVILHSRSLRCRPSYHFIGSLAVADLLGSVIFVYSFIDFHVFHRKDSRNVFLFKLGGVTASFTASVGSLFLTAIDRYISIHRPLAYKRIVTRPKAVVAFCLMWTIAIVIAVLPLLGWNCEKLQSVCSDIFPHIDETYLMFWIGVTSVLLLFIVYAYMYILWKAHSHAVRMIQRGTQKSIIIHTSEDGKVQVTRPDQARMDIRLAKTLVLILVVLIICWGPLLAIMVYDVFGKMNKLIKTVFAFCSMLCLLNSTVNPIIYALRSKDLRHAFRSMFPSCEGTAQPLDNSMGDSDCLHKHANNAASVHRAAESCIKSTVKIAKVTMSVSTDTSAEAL
protocol summary: Positive allosteric modulation of human CB1 receptor expressed in CHOK1 cells assessed as increase in CP55940-induced beta-arrestin recruitment at 1000 nM preincubated for 30 mins followed by CP55940 addition and measured after 90 to 180 mins by PathHunter assay relative to CP55940
Format: cell-based
recorded endpoint: Activity

> print(dat)
                                    compound     target.desc  recorded.value
 1  Cc1ccc2c(C(CC(F)(F)F)c3ccco3)c(-c3ccccc3)[nH]c2c1 (racemic)  UniProt:P21554           > 50%
 2  Cc1ccc2c(C(C[N+](=O)[O-])c3cccs3)c(C3CC3)[nH]c2c1 (racemic)  UniProt:P21554           > 50%
 3  N#Cc1ccc2c(C(C[N+](=O)[O-])c3cccs3)c(-c3ccccc3)[nH]c2c1 (single isomer, unassigned; (+))  UniProt:P21554           > 50%
 4  Cc1ccc2c(C(c3cccs3)C(C#N)C#N)c(-c3ccccc3)[nH]c2c1 (racemic)  UniProt:P21554           > 50%
 5  Cc1ccc2c(C(C[N+](=O)[O-])c3cccs3)c(C3CCCC3)[nH]c2c1 (racemic)  UniProt:P21554           > 50%
 6  Cc1ccc2c(C(c3ccccc3)C(C#N)C#N)c(-c3ccccc3)[nH]c2c1 (racemic)  UniProt:P21554           > 50%
 7  N#Cc1ccc2c(C(C[N+](=O)[O-])c3cccs3)c(-c3ccccc3)[nH]c2c1 (racemic)  UniProt:P21554           > 50%
 8  Cc1ccc2c(C(CC#N)c3ccccc3)c(-c3ccccc3)[nH]c2c1 (racemic)  UniProt:P21554           > 50%
 9  FC(F)(F)CC(c1ccccc1)c1c(-c2ccccc2)[nH]c2ccccc12 (racemic)  UniProt:P21554           > 50%
10  Cc1ccc2c(C(CC3CC3)CC(F)(F)F)c(-c3ccccc3)[nH]c2c1 (racemic)  UniProt:P21554           > 50%
11  Cc1ccc2[nH]c(-c3ccccc3)c(C(C[N+](=O)[O-])c3cccs3)c2c1 (racemic)  UniProt:P21554           > 50%
12  N#Cc1ccc2c(C(C[N+](=O)[O-])c3cccs3)c(-c3ccccc3)[nH]c2c1 (single isomer, unassigned; (-))  UniProt:P21554           > 50%
